Reference for the values: PubChem BioAssay (NCI)

Overview of recorded growth for various compounds
- Tested on: TK-10 renal
- experiment-description: NCI-60 one-dose screen, 48 h (100 = growth as untreated, 0 = no growth, -100 = all killed)
- condition-set: 10 µM
This is part of a sample that, as a whole, favours compounds with a hit. Of some 83,000 tested, about 20% had one in any assay.
reported-metric: growth (%)

>  <compound>
CN(Cc1ccccc1)Cc1ccc([N+](=O)[O-])cc1I

>  <recorded-number>
106

$$$$
>  <compound>
O=c1oc2cc(OS(=O)(=O)c3ccccc3)ccc2c2c1CCCCC2

>  <recorded-number>
67.9

$$$$
>  <compound>
CCOC(=O)N1C=CC2C=CC1C1C=CC=CC2N1C(=O)OCC (stereo not given)

>  <recorded-number>
111

$$$$
>  <compound>
c1ccc(CO[C@H]2CO[C@H]3[C@@H]2OC[C@H]3OCc2ccccc2)cc1

>  <recorded-number>
101

$$$$
>  <compound>
CSCCCNC(=O)c1ccc2c(c1)/C(=C/c1[nH]c(C)cc1C)C(=O)N2

>  <recorded-number>
29.4

$$$$
>  <compound>
COc1ccccc1/C=C/C(=O)c1ccccc1

>  <recorded-number>
104

$$$$
>  <compound>
COc1ccccc1CNCCN1C(=O)c2ccc3c4c(ccc(c24)C1=O)C(=O)N(CCNCc1ccccc1OC)C3=O

>  <recorded-number>
-30.8

$$$$
>  <compound>
CCCCCCc1cc(N=Nc2ccc(S(=O)(=O)Nc3cc(C)nc(C)n3)cc2)c(O)cc1O

>  <recorded-number>
107

$$$$
>  <compound>
CSc1nn(-c2ccccc2)c2ncnc(Oc3ccccc3)c12

>  <recorded-number>
106

$$$$
>  <compound>
CC/C(=C(/c1ccc(OCCN(C)C)cc1)c1ccc(OC(=O)CCC(=O)c2c(C)[nH]c(/C=C3\N=C(c4ccc[nH]4)C=C3OC)c2C)cc1)c1ccccc1

>  <recorded-number>
21.7

$$$$
>  <compound>
O=C(O)CC(Cl)C(Cl)CC(=O)O (stereo not given)

>  <recorded-number>
95.7

$$$$
>  <compound>
C#Cc1ccc(-n2c(/C=C/c3ccc(O)c(OC)c3)nc3ncccc3c2=O)cc1

>  <recorded-number>
139

$$$$
>  <compound>
CSc1nn(-c2ccccc2)c2ncnc(Oc3ccc(C)cc3)c12

>  <recorded-number>
94.2

$$$$
>  <compound>
Cc1cc(Nc2ccc(Cl)cc2)nc(NCCCNc2ccnc3cc(Cl)ccc23)n1

>  <recorded-number>
-74.7

$$$$
>  <compound>
CCC1(C(C)C)NC(=O)NC1=O (stereo not given)

>  <recorded-number>
113

$$$$
>  <compound>
O=C(Nc1ccncc1)C(=O)c1cn(S(=O)(=O)c2cccc3ccccc23)c2ccccc12

>  <recorded-number>
88.3

$$$$
>  <compound>
O=C(C[n+]1ccccc1)c1ccc2ccccc2c1

>  <recorded-number>
102

$$$$
>  <compound>
O=[N+]([O-])c1ccc(Oc2cc(Cl)c(Cl)cc2Cl)c(C(F)(F)F)c1

>  <recorded-number>
115

$$$$
>  <compound>
O=C(Nc1cccc(Br)c1)c1cc(=O)[nH]c2ccccc12

>  <recorded-number>
109

$$$$
>  <compound>
COc1ccc(-c2nn(-c3cccc(NC(=O)c4ccc(Cl)c(Cl)c4)c3)cc2-c2ccncc2)cc1Cl

>  <recorded-number>
85

$$$$
>  <compound>
COc1ccc2c(c1)C(=O)c1c-2c(=O)n(CCCN(C)C)c2cc(OC)c(OC)cc12

>  <recorded-number>
102

$$$$
>  <compound>
O=C1OCC2=C1C(c1ccc(Cl)c(Cl)c1)c1cc3c(cc1N2CCO)OCCO3 (stereo not given)

>  <recorded-number>
57

$$$$
>  <compound>
CCCCC(CCCCCC(CCCC)NCc1ccc2c(c1)OCO2)NCc1ccc2c(c1)OCO2 (stereo not given)

>  <recorded-number>
-88

$$$$
>  <compound>
COc1ccc(/C=C/C(=O)Nc2ccc(-c3nc4ccc(F)cc4s3)cc2)cc1

>  <recorded-number>
104

$$$$
>  <compound>
CN1c2ccccc2[C@]2(Cc3ccccc3)Cc3ccccc3N[C@H]12

>  <recorded-number>
114

$$$$
>  <compound>
O=C(C[P+](c1ccccc1)(c1ccccc1)c1ccccc1)C[P+](c1ccccc1)(c1ccccc1)c1ccccc1

>  <recorded-number>
-94.1

$$$$
>  <compound>
COc1ccc2c(c1)N(CCO)C1=C(C(=O)OC1)C2c1ccc(OC)c(OC)c1 (stereo not given)

>  <recorded-number>
59.3

$$$$
>  <compound>
CCN(CC)CCC(CNc1c(C)cnc2cc(Cl)ccc12)c1ccc(Cl)cc1 (stereo not given)

>  <recorded-number>
89.6

$$$$
>  <compound>
CN(C)CCOc1nc2ccccc2c2c1-c1ccc(Cl)cc1C2=O

>  <recorded-number>
-16.4

$$$$
>  <compound>
COc1ccc(-c2nc3ncccn3c2-c2nnc(-c3ccc(F)cc3)o2)cc1

>  <recorded-number>
113

$$$$
>  <compound>
Nc1ccccc1NC(=O)CCCCC(=O)Nc1ccc2c(c1)/C(=C/c1ccc[nH]1)C(=O)N2

>  <recorded-number>
68.2

$$$$
>  <compound>
CCCCC/C=C/C(=O)CCc1ccc(O)c(OC)c1

>  <recorded-number>
110

$$$$
>  <compound>
CCN(CC)Cc1cc(Nc2ccnc3cc(Cl)ccc23)ccc1OC

>  <recorded-number>
94.9

$$$$
>  <compound>
CCCCCCCCCCCCCCCCN(C(C)c1ccccc1)S(=O)(=O)c1ccc(OC)c(N)c1 (stereo not given)

>  <recorded-number>
122

$$$$
>  <compound>
COc1ccc2c(c1)sc1nc(-c3ccccc3)c(-c3ccsc3)n12

>  <recorded-number>
46.1

$$$$
